Recorded inhibition, one value per entry.
assay: blockers of RIG-like receptor reporter activation – cell-based, Sendai virus stimulus, luciferase, 10K MLSCN set, TLR/RLR signaling modifier project, primary screen (AID 602276); details: HEK293 RL24 IRF3 luciferase reporter, at 10 µM, stronger effect = higher value;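 further: firefly luciferase from ISG56 promoter only with Renilla not read in this screen; 0% = Sendai virus plus DMSO and 100% = medium plus DMSO without virus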
// note: answer is a bare numeric in %

COMPOUND	NUMBER
Cc1cc(C)cc(NC(=O)c2nnn(Cc3cc(C)ccc3C)c2N)c1	44.9
COc1ccc(NC(=O)N2CCC(c3nc(-c4cccs4)no3)CC2)cc1	-1.92
CCOC(=O)N1CCC(N2C(=O)c3ccccc3C2Nc2ccccc2C)CC1 (stereo unspecified)	3.88
c1cncc(-c2nnc(SCCSc3nnc(-c4cccnc4)o3)o2)c1	14.3
CCOC(=O)N1CCN(Cc2ccccc2F)CC1	12.5
CCCn1c(SCC(=O)N2CCCc3ccccc32)nnc1-c1ccccn1	20.3
COc1ccccc1C(=O)NC(C)C(c1cccs1)N1CCN(C)CC1 (stereo unspecified)	-13.5
O=c1[nH]c2cc3c(cc2cc1C(c1nnnn1C1CCCCC1)N1CCSCC1)OCCO3 (stereo unspecified)	-11.4
CCCn1cnc2c(c1=O)c1nc3ccccc3nc1n2Cc1ccccc1OC	-9.22
Cc1ccc2c(c1)-c1c(cnn1CC(=O)Nc1ccccc1N1CCN(C)CC1)CO2	3.02

In the following, a different compound is considered.
compound CCCCCc1nnc(NC(=O)Cc2cccs2)s1 , inhibition observed: 11.9

---

Recorded nuclei count, one value per entry.
assay: reduction of polyQ htt aggregates in cells – imaging, exon1htt(103Q)mCFP cells, high-content imaging, primary screen (AID 483); settings: exon1htt(103Q)mCFP cell line, aggregate imaging, at 2 µM; measured here: cell count, toxicity;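 further: compound exposure lasted 3 days before fixation; percent of the per-plate median nuclei count of sample wells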
// note: answer is a bare numeric in %

Observe how each entry below is paired with its result.
COMPOUND	nuclei count, %
Cc1ccc(CNC(=O)C2CC(=O)OC23CCCC3)c(C)c1 (configuration not stated)	104
COC(=O)c1c(C)oc2ccc(NS(=O)(=O)c3cccs3)cc12	99.1
Cc1ccc(S(=O)(=O)CC2CSc3nnc(C)c(=O)n32)cc1 (configuration not stated)	91.3
O=C(O)CCC1(C(=O)O)OCCc2ccccc21 (configuration not stated)	99.2
Cc1oc(-c2ccccc2F)nc1CS(=O)(=O)CC(=O)N1CCCCCC1	116

In the following, a different compound is considered.
compound CN(C)/C=C(\C#N)c1nc2ccccc2[nH]1 , nuclei count observed: 67.1

---

Recorded inhibition, one value per entry.
test: inhibitors of TNFa-induced NFkB p65 translocation, primary screen, imaging, HUVEC, MLSMR starter and 10KST1 sets (AID 438); settings: HUVEC TNFa-induced p65 nuclear translocation; at 2 µM, stronger effect = higher value, 0% TNFa-plus-vehicle, 100% no-TNFa wells;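 further: compound added about 3h40 before a 20 min TNFalpha stimulation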;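 on inhibition: signal is the nuclear over cytoplasmic p65 intensity ratio per well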
// note: answer is a bare numeric in %

COMPOUND	inhibition [%]
CC(=O)Nc1nnc(SCC(=O)NCC2CCCO2)s1 (stereo not drawn)	6
O=C(c1ccc(=O)[nH]c1)N(Cc1ccco1)C1(C(=O)NC2CCCC2)CCCCC1	-7.1
COc1cccc(OC)c1C(=O)N1CCN(S(=O)(=O)c2ccccc2)CC1	1.4
CCOc1ccccc1Nc1nnc(SCC(=O)N2CCCC2)s1	1
CCOC(=O)c1oc2c(CN3CCN(C)CC3)c(O)ccc2c(=O)c1-c1ccccc1OC	2.1

compound Nc1nc(N2CCN(C/C=C/c3ccccc3)CC2)nc2ccccc12 , inhibition observed: 7.3

compound CC(C)N(O)C(=O)NC(C)(C)C , inhibition observed: 9.4

---

assay: inhibitors of TNFa-induced NFkB p65 translocation, primary screen, imaging, HUVEC, MLSMR starter and 10KST1 sets (AID 438); conditions: HUVEC TNFa-induced p65 nuclear translocation; measured here: nuclei count (cytotoxicity indicator), at 2.08 µM;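 further: compound added about 3h40 before a 20 min TNFalpha stimulation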
READOUT: cell count

Observe how each entry below is paired with its result.
MOLECULE	READOUT	RESULT
Cc1nc2oc3c(NCc4ccccn4)ncnc3c2c2c1COC(C)(C)C2	cell count	366
Cc1occc1-c1nnc(SCC(=O)NCC2CCCO2)n1C (stereo unspecified)	cell count	687
COC(=O)c1[nH]c2ccc(C)cc2c1NC(=O)CN1CCCC(C)(C)C1	cell count	422
CCOC(=O)CSC1=C(C#N)C(c2ccc(Cl)cc2)C(C(=O)OC)C(=O)N1 (stereo unspecified)	cell count	495
CCOC(=O)CSc1nc2cc(C(=O)NCc3ccco3)ccc2c(=O)n1C1CCCCC1	cell count	455
O=C(NCCc1ccccc1)c1cc(-c2ccco2)on1	cell count	384
O=S(=O)(c1ccc(F)cc1)N1CCC(N2CCCC2)CC1	cell count	621
O=C(COc1ccc(F)cc1)Nc1ccc(-n2cnnn2)cc1	cell count	568
O=C1c2ccccc2NC(c2cccc(F)c2)N1Cc1ccco1 (stereo unspecified)	cell count	586
N#CCSc1nc(-c2ccccc2)cs1	cell count	371

In the following, a different molecule is considered.
molecule CC(C)CCn1c(N)c(S(=O)(=O)c2cccs2)c2nc3ccccc3nc21 , cell count observed: 652

---

test: endothelial E-selectin expression blockers – imaging, HUVEC, immunofluorescence, MLSMR starter and 10KST1 sets, primary screen (AID 487); details: HUVEC TNFalpha-induced E-selectin immunofluorescence imaging, at 2 µM; measured here: cell number, toxicity;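 further: 100% = median nuclei count of all wells on the same plate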
Recorded nuclei count, one value per entry.
// note: answer is a bare numeric in %

MOLECULE	READOUT	VALUE_UNITS	NUMBER
CCN1CCN(Cc2ccc(NC(=O)Nc3ccccc3)cc2)CC1	nuclei count	%	102
COc1ccc(C(=O)NCc2nnc(SC)n2C2CCCCC2)cc1	nuclei count	%	101
N#CCCN(Cc1cccnc1)C(=O)Nc1ccc(Cl)c(Cl)c1	nuclei count	%	99.6
CC1(C)NC(=O)N(CCCOc2ccc(Br)cc2Cl)C1=O	nuclei count	%	119
OCc1nc(CO)n(Cc2ccccc2)n1	nuclei count	%	86.8
Cc1ccc(-c2nnc(SC(C)C#N)n2N)cc1 (configuration not stated)	nuclei count	%	137
CC(C)(C)c1ccc(C(=O)N2CCC(C(=O)NCc3ccncc3)CC2)cc1	nuclei count	%	113
COc1ccccc1N(CC(=O)NC1CCCC1)C(=O)CCC(=O)Nc1cc(C)on1	nuclei count	%	102

molecule CCOC(=O)c1sc(NC(=O)CSc2nnnn2-c2ccccc2)c(C(=O)OCC)c1C , nuclei count observed: 156

molecule Cc1ccc2nc(C3CCN(CC(=O)N4CCCCCC4)CC3)[nH]c2c1 , nuclei count observed: 111

molecule COC(=O)CCC(=O)Nc1ccc(OC)cc1 , nuclei count observed: 101

molecule O=C(O)CCCCCNc1nc(=S)[nH]c2ccccc12 , nuclei count observed: 105

---

target: Voltage-gated potassium channel subunit beta-2 (Rattus norvegicus) (UniProt P62483); assay: enhancers of rat Kvbeta2 NADPH turnover – biochemical, NADPH fluorescence, primary screen (AID 623); details: Recombinant KvBeta, NADPH fluorescence decrease slope, 10 min; at 10 µM; stronger effect = lower value;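 further: fluorescence intensity change per second fitted from 20 to 320 s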
Sequence (P62483 whole entry, looked up): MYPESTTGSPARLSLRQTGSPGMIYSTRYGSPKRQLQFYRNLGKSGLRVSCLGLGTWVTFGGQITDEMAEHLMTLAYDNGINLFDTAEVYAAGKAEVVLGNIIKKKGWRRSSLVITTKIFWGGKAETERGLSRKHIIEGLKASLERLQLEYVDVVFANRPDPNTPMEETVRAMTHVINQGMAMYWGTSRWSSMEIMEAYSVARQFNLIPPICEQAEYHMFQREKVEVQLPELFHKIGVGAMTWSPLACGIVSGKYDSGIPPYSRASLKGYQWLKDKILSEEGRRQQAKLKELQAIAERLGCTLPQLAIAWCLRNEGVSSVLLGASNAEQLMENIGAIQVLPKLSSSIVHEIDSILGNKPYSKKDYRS
READOUT: NADPH fluorescence slope
No unit in the answer, only the number.

Observe how each entry below is paired with its result.
COMPOUND	TARGET_OR_TEST_SYSTEM	NADPH fluorescence slope
O=C(CCCn1c(=S)[nH]c2cc3c(cc2c1=O)OCO3)N1CCN(c2ccccc2F)CC1	Voltage-gated potassium channel subunit beta-2 (Rattus norvegicus) (UniProt P62483)	-4.7e-05
O=C(c1cnn2c(C(F)F)cc(-c3ccccc3)nc12)N1CCN2CCCC2C1 (stereo unspecified)	Voltage-gated potassium channel subunit beta-2 (Rattus norvegicus) (UniProt P62483)	-1.6e-05

compound C(#Cc1ccccc1)Cn1nnc2ccccc21 , NADPH fluorescence slope observed: -2.1e-05

compound CC1(C)CN=C(N2CCN(c3ncnc4sc5c(c34)CCCC5)CC2)S1 , NADPH fluorescence slope observed: -4.9e-05

compound COC(=O)c1ccccc1NC(=O)Cn1c(-c2nonc2N)nc2ccccc21 , NADPH fluorescence slope observed: -5.1e-05

compound CC(C)CCn1c(N)c(S(=O)(=O)c2cccs2)c2nc3ccccc3nc21 , NADPH fluorescence slope observed: 1.8e-05

---

Recorded nuclei count, one value per entry.
experiment: endothelial E-selectin expression blockers – imaging, HUVEC, immunofluorescence, MLSMR starter and 10KST1 sets, primary screen (AID 487); conditions: HUVEC TNFalpha-induced E-selectin immunofluorescence imaging, at 2 µM; measured here: cell number, toxicity;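 further: 100% = median nuclei count of all wells on the same plate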
// note: answer is a bare numeric in %

MOLECULE	READOUT	NUMBER
C=CCn1c(=O)c2ccccc2n2c(SC(C)C(=O)Nc3nc(-c4ccccc4)cs3)nnc12 (stereo unspecified)	nuclei count	107
COc1cccc(NC(=O)N2CCCC2C(=O)Nc2ccc3c(c2)OCO3)c1 (stereo unspecified)	nuclei count	106
O=C(CSc1nnnn1C1CCCC1)Nc1cccc(NC(=O)c2ccco2)c1	nuclei count	132

molecule O=C1C2C3C=CC(C3)C2C(=O)N1CNc1ccc(O)cc1 (stereo unspecified) , nuclei count observed: 106

---

assay: inhibitors of TNFa-induced NFkB p65 translocation, primary screen, imaging, HUVEC, MLSMR starter and 10KST1 sets (AID 438); details: HUVEC TNFa-induced p65 nuclear translocation; at 2 µM, stronger effect = higher value, 0% TNFa-plus-vehicle, 100% no-TNFa wells;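 further: compound added about 3h40 before a 20 min TNFalpha stimulation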;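 on inhibition: signal is the nuclear over cytoplasmic p65 intensity ratio per well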
READOUT: inhibition (%)
// note: answer is a bare numeric in %

Observe how each entry below is paired with its result.
COMPOUND	VALUE_UNITS	inhibition
Cc1ccccc1OCc1nnc(SCC(=O)NCc2ccccc2)n1C	%	3.9
O=C(NCc1cccs1)C1CC(c2ccccc2O)=NO1 (configuration not stated)	%	1.7
CCn1c(SCC(=O)Nc2ccccc2F)nc2c(c1=O)SC(C)C2 (configuration not stated)	%	-2.2
Cc1ccc(-c2nn[nH]n2)cc1	%	-7.1
N#CCc1ccc(NC(=O)Nc2cccc(Cl)c2)cc1	%	-8.6
CCOc1ccccc1-c1nc(-c2ccc(NC(=O)Cc3ccccc3OC)cc2)no1	%	-5
COc1ccccc1OCc1ccc(C(=O)NC(C)(C)C)o1	%	-5.5
CC(CN1CCCCC1)OC(=O)c1ccc2c(c1)OCO2 (configuration not stated)	%	4.9

compound CSc1ccccc1NC(=O)CN(Cc1ccccc1)S(C)(=O)=O , inhibition observed: -15.1

compound CC1CCCCC1NC(=O)COc1ccc(-n2cnnn2)cc1 (configuration not stated) , inhibition observed: 6.8

compound COc1ccc(-n2c(COc3cccc(C)c3)nnc2SCC(=O)NCc2ccco2)cc1 , inhibition observed: -6.3

compound Cc1cc(/C=N/n2cnnc2)c(C)n1-c1ccc(Cl)cc1Cl , inhibition observed: 7.6
